Target: Recombinant (1-346) HPK1 (h) (Homo sapiens, UniProt Q92918)
Construct: Recombinant (1-346) HPK1 (h) is incubated with 8 mM MOPS pH 7.0
Assay: HPK1 Human STE Kinase Enzymatic Radiometric Assay
Assay type: biochemical
Conditions: read-out: HPK1 IC50 nM Range*
Description: A stock solution of 10 mM of test compound is prepared in DMSO. The compound plate was prepared by 3-fold and 9-point serial dilutions. […] The reaction is initiated by The addition of the Mg/ATP mix. After incubation for 40 minutes at RT, the reaction is stopped by the addition of phosphoric acid to a concentration of 0.5%.
measurement-kind: IC50

Kindly note: Recombinant (1-346) HPK1 (h) (Homo sapiens, UniProt Q92918), CC(C)N1CCN(c2ccc(-c3cc(-c4ccc5c(=O)[nH]ncc5c4)c(N)nc3F)cc2)CC1 , IC50 value reported: 11 to 100 nM

Query CN1CCC(c2ccc(-c3cc(-c4cc5c(cc4F)C(=O)NCC5)c(N)nc3Cl)cc2)CC1 on Recombinant (1-346) HPK1 (h) (Homo sapiens, UniProt Q92918); IC50 returned: 11 to 100 nM

Entry CCN(C)Cc1cc(-c2cc(-c3ccc4c(c3)CCNC4=O)c(N)nc2F)ccc1C1CCOCC1 under Recombinant (1-346) HPK1 (h) (Homo sapiens, UniProt Q92918) had IC50 of 11 to 100 nM

Form field, IC50 with Recombinant (1-346) HPK1 (h) (Homo sapiens, UniProt Q92918), item CN1C[C@@H]2C[C@]2(c2ccc(-c3cc(-c4cc5c(cc4F)C(=O)NCC5)c(N)nc3F)cc2)C1 : 0.1 to 10 nM

Summary: Nc1nc(F)c(-c2ccc(OC3CCNCC3)c(F)c2)cc1-c1ccc2c(c1)CCNC2=O , Recombinant (1-346) HPK1 (h) (Homo sapiens, UniProt Q92918), IC50 = 0.1 to 10 nM

Readout IC50 for CN1CCN(C(=O)c2cccc(-c3cc(-c4ccc5c(c4)CCNC5=O)c(N)nc3F)c2)CC1 , test system Recombinant (1-346) HPK1 (h) (Homo sapiens, UniProt Q92918), was 101 to 1000 nM

Assay Recombinant (1-346) HPK1 (h) (Homo sapiens, UniProt Q92918), sample C[C@H]1CC(Oc2ccc(-c3cc(-c4ccc5c(c4)CCNC5=O)c(N)nc3F)cc2)C[C@H](C)N1 (some centres unmarked) , IC50 read: 0.1 to 10 nM

Log: Recombinant (1-346) HPK1 (h) (Homo sapiens, UniProt Q92918), compound CC(C)N1CCN(c2ccc(-c3cc(-c4ccc5c(=O)[nH]cc(Cl)c5c4)c(N)nc3F)cc2)CC1 , IC50 = 11 to 100 nM

----------
biological target: Lck (h) (Homo sapiens, UniProt P06239); experiment: Lck Human  Kinase Enzymatic Radiometric Assay; assay type: biochemical; conditions: read-out: Lck IC50 nM Range*
Sequence (P06239 whole entry): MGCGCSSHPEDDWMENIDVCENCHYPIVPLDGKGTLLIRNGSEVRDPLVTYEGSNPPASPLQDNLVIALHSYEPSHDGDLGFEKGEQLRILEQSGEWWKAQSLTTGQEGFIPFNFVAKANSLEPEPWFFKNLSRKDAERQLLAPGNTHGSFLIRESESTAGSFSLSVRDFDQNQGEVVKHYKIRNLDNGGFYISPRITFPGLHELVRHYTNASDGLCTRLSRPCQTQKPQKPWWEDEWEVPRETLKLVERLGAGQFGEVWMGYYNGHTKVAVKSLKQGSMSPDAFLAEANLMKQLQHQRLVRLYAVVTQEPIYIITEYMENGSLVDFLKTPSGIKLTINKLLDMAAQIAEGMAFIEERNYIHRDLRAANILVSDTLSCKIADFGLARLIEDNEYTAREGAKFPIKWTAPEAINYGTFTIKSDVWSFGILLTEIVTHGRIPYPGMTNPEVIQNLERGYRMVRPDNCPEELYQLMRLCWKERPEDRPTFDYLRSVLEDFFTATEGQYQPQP
measurement-kind: IC50

Below, 5 compounds whose answers are already recorded.
In [3]: df
Out[3]:
                                   compound                                     tgt        observed
0  CCN1CCN(c2ccc(-c3cc(-c4cc(F)c5c(=O)[nH]ccc5c4)c(N)nc3F)cc2)CC1  Lck (h) (Homo sapiens, UniProt P06239)  101 to 1000 nM
1  Nc1nc(F)c(-c2ccc(N3CCOCC3)cc2)cc1-c1cc(F)c2c(=O)[nH]ccc2c1  Lck (h) (Homo sapiens, UniProt P06239)       > 1000 nM
2  Nc1nc(F)c(-c2ccc(OC3CCN(CC(F)(F)F)CC3)c(C(F)(F)F)c2)cc1-c1ccc2c(c1)CCNC2=O  Lck (h) (Homo sapiens, UniProt P06239)       > 1000 nM
3  Nc1nc(F)c(-c2ccc(N3CCN(CCF)CC3)cc2)cc1-c1ccc2c(c1)CCNC2=O  Lck (h) (Homo sapiens, UniProt P06239)       > 1000 nM
4  Nc1nc(F)c(-c2ccc(C3CCNCC3)cc2)cc1-c1cc2c(cc1F)C(=O)NCC2 [I-238, 2,2,2-trifluoroacetate]  Lck (h) (Homo sapiens, UniProt P06239)       > 1000 nM

Hey, Lck (h) (Homo sapiens, UniProt P06239) data for CN1CCN(c2ccc(-c3cc(-c4ccc5c(c4)CCNC5=O)c(N)nc3F)cc2F)CC1 : IC50 came out at > 1000 nM

Record for Cc1cc2cc(-c3cc(-c4ccc(N5CCN(C(C)C)CC5)cc4)c(F)nc3N)ccc2c(=O)[nH]1 under target or system Lck (h) (Homo sapiens, UniProt P06239): IC50 reported as 101 to 1000 nM

The recorded IC50 with Lck (h) (Homo sapiens, UniProt P06239) for Nc1nc(F)c(-c2ccc(N3CCOCC3)cc2)cc1-c1cc(F)c2c(c1)CCNC2=O was > 1000 nM

Nc1nc(F)c(-c2ccc(N3CCN(CC4CC4)CC3)cc2)cc1-c1ccc2c(c1)CCNC2=O on Lck (h) (Homo sapiens, UniProt P06239) gives IC50 = 101 to 1000 nM

Noted IC50 for Cc1nc2cc(-c3cc(-c4ccc(N5CCN(C(C)C)CC5)cc4)c(F)nc3N)cc(F)c2c(=O)[nH]1 , tested on Lck (h) (Homo sapiens, UniProt P06239): > 1000 nM

Tested on Lck (h) (Homo sapiens, UniProt P06239): Nc1nc(F)c(-c2ccc(C3CCN(CC4CC4)CC3)cc2)cc1-c1cc(F)c2c(c1)CCNC2=O . Observed IC50: > 1000 nM

Sample CC(C)N1CCOC(c2ccc(-c3cc(-c4ccc5c(c4)CCNC5=O)c(N)nc3F)cc2)C1 (stereo not shown) , system: Lck (h) (Homo sapiens, UniProt P06239). Its IC50 is > 1000 nM

Lck (h) (Homo sapiens, UniProt P06239) IC50 of Nc1nc(F)c(-c2cc3n(n2)CC(=O)NCC3)cc1-c1ccc2c(c1)CCNC2=O is > 1000 nM

----------
Biological target: Recombinant (1-346) HPK1 (h) (Homo sapiens, UniProt Q92918)
Construct: Recombinant (1-346) HPK1 (h) is incubated with 8 mM MOPS pH 7.0
Sequence (Q92918 1-346): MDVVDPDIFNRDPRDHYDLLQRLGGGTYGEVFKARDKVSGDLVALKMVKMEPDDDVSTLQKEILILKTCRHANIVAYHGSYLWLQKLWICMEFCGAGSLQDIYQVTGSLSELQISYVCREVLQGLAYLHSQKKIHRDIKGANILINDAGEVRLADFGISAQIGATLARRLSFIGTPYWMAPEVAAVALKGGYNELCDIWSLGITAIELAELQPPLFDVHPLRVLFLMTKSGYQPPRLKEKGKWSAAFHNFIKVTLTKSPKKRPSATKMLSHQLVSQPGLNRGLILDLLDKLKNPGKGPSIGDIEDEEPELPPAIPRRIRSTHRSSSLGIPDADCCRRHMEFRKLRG
Assay: HPK1 Human STE Kinase Enzymatic Radiometric Assay
Assay type: biochemical
Details: read-out: HPK1 IC50 nM Range*
Measured IC50 of individual entries

# example entries with known answers
>>> print(df.to_string())
                                   compound                                       tgt  measurement_kind        observed
0  CC(C)[C@H]1CN(c2ccc(-c3cnc(N)c(-c4ccc5c(c4)CCNC5=O)c3F)c(F)c2)CCO1  Recombinant (1-346) HPK1 (h) (Homo sapiens, UniProt Q92918)              IC50  101 to 1000 nM
1  Nc1nc(F)c(-c2ccc(N3CCOCC3)c(CN3CCC3)n2)cc1-c1ccc2c(c1)CCNC2=O  Recombinant (1-346) HPK1 (h) (Homo sapiens, UniProt Q92918)              IC50    0.1 to 10 nM
2  Nc1nc(F)c(-c2ccc(N3CCN(CC4CC4)CC3)cc2)cc1-c1cc(F)c2c(=O)[nH]ccc2c1  Recombinant (1-346) HPK1 (h) (Homo sapiens, UniProt Q92918)              IC50    0.1 to 10 nM
3  COCCN1CCN(c2ccc(-c3cc(-c4cc5c(cc4F)C(=O)NCC5)c(N)nc3F)cc2C(F)(F)F)CC1  Recombinant (1-346) HPK1 (h) (Homo sapiens, UniProt Q92918)              IC50    0.1 to 10 nM
4  CN(C)Cc1cc(-c2cc(-c3ccc4c(c3)CCNC4=O)c(N)nc2F)ccc1N1CCN(C2CCCC2)CC1  Recombinant (1-346) HPK1 (h) (Homo sapiens, UniProt Q92918)              IC50    0.1 to 10 nM

# context switch: different compound, same IC50
Looking up CN(C)Cc1cc(-c2cc(-c3ccc4c(c3)CCNC4=O)c(N)nc2F)ccc1N1CCSCC1 , I found its IC50 recorded as 0.1 to 10 nM
